Answer each item with its documented RP-LC retention time.
# experimental protocol: gradient 5% acetonitrile 3 min, to 50% in 2 min, to 85% in 15 min, held 3 min, 100 µL/min
# details: column: Zorbax Extend-C18 2.1 x 50 mm; eluents: water / acetonitrile, 0.1% formic acid
Answers are plain numbers, in s.

Record excerpt, results attached:
> print(dat)
                                     smiles  recorded.result
1  CN(C)C/C=C/C(=O)Nc1ccc(C(=O)Nc2cccc(Nc3ncc(Cl)c(-c4c[nH]c5ccccc45)n3)c2)cc1              800
2  COc1ccccc1CNC1=NCCNC12CCN(S(=O)(=O)c1cc(C)ccc1C)CC2              775
3  Cc1nn(CCC(=O)Nc2cccc(Cl)c2)c(=O)c2nn(-c3ccccc3)c(C)c12              867

# context switch: different molecule, same RP-LC retention time
### Prompt Which value of RP-LC retention time has been reported for "CCCc1noc(-c2cccnc2N2CCCN(Cc3ccc(C)cc3)CC2)n1" in the records?
### Response 749

====

# experimental protocol: gradient 5% acetonitrile 3 min, to 50% in 2 min, to 85% in 15 min, held 3 min, 100 µL/min
# details: column: Zorbax Extend-C18 2.1 x 50 mm; eluents: water / acetonitrile, 0.1% formic acid
Kindly apply the following: Satisfied if RP-LC retention time is less than 700 s, Not satisfied in every other case.

Consider the following illustrative entries.
> print(dat)
                                   compound  assigned.category
1               CCOC(=O)c1nn(-c2ccccc2)cc1O      Not satisfied
2  N#Cc1ccc(C(=O)NCC(=O)N2CCCc3ccccc32)c(F)c1      Not satisfied
3  Cc1cc(-c2nnc(-c3ccccc3)o2)c(C)n1CC(=O)Nc1ccccc1      Not satisfied
4  COc1ccc(-c2nc3ncc4c(=O)n(CCc5c[nH]c6ccc(F)cc56)ccc4n3n2)cc1      Not satisfied

### Prompt Report whether reported RP-LC retention time is lower than 700 s (strictly) for CCN1CCN(C(=O)CC2Sc3ncccc3N(CC)C2=O)CC1 (centres undefined)
### Response Satisfied

### Prompt What do we get for Cc1cc(-c2cc(S(=O)(=O)NCC(C)c3ccccc3)c(C)s2)n[nH]1 (centres undefined) ?
### Response Not satisfied

### Prompt What do we get for Cc1sc(NC(=O)c2ccccc2)c(C(Nc2ccccn2)c2cccs2)c1C (centres undefined) ?
### Response Not satisfied

### Prompt What do we get for COC(=O)c1ccc(NC(=O)N2CCC(CCOc3ccc(F)cc3)C2)cc1 (centres undefined) ?
### Response Not satisfied

### Prompt What do we get for "O=C(NCC1CCN(Cc2ccsc2)CC1)Nc1ccc2c(c1)OCO2" ?
### Response Satisfied

### Prompt What do we get for "CCOc1ccc(CNC(=O)C2=Cc3cc(OC)ccc3OC2)cc1OC" ?
### Response Not satisfied

### Prompt What do we get for "O=C(Cn1nc2c(N3CCCCCC3)nccn2c1=O)Nc1cccc(Cl)c1" ?
### Response Not satisfied

### Prompt What do we get for "CCOc1ccc(-c2cc3c(=O)n(Cc4nc(-c5cccc(C(F)(F)F)c5)no4)ncn3n2)cc1" ?
### Response Not satisfied

### Prompt What do we get for "c1ccc2c(c1)CCN(c1ncnc3c1CCC3)C2" ?
### Response Satisfied

### Prompt What do we get for COCc1nnc2n1CCC(NC(=O)c1ccoc1)CC2 (centres undefined) ?
### Response Satisfied

### Prompt What do we get for "O=C([C@@H]1C[C@H](F)CN1S(=O)(=O)Cc1cccc(Cl)c1)N1CCc2ccccc2C1" ?
### Response Not satisfied

### Prompt What do we get for "Cc1ccc(CNS(=O)(=O)c2cc(-c3nc(C)c(C)s3)cs2)cc1" ?
### Response Not satisfied

### Prompt What do we get for "Cc1oc(-c2[nH]ncc2C(=O)N2CCCC2)cc1S(=O)(=O)Nc1ccc(F)c(F)c1" ?
### Response Not satisfied

### Prompt What do we get for "COc1ccc(CNc2nc3ccncc3n(C(C)C)c2=O)cc1OC" ?
### Response Satisfied

====

# experimental protocol: gradient 5% acetonitrile 3 min, to 50% in 2 min, to 85% in 15 min, held 3 min, 100 µL/min
# details: column: Zorbax Extend-C18 2.1 x 50 mm; eluents: water / acetonitrile, 0.1% formic acid
Kindly apply the following: 1 if RP-LC retention time is less than 800 s, 0 in every other case.

Consider the following illustrative entries.
> print(dat)
                                   compound  assigned.category
1  COc1ccc(CNC(=O)C2(C)Cn3nc(C)cc3C(=O)N2c2ccc(F)cc2)cc1 (configuration not stated)                  1
2  COc1ccc(CCC(=O)N2CCCC2c2cc(C)on2)cc1 (configuration not stated)                  1
3    Cc1ccsc1C(=O)Nc1ccc2ncnc(N3CCCCC3)c2c1                  1
4  CC(=O)Nc1nnc(SCc2cc(=O)c(OC(=O)c3ccccc3Cl)co2)s1                  1
5  COc1cc(OC)c(NC(=O)NC2CCN(c3ccc(C)cc3)C2=O)cc1Cl (configuration not stated)                  0
6  CCOc1ccc2cccc(NC(=O)c3ccc(S(=O)(=O)N(C)C)cc3)c2n1                  0
7  CCCCNC(=O)CN1c2ccc(F)cc2-c2ccccc2S1(=O)=O                  0
8  O=C(c1ccco1)N1CCN(C(=O)C2CCN(c3nc4ccccc4[nH]c3=O)CC2)CC1                  1

### Prompt Report whether reported RP-LC retention time is lower than 800 s (strictly) for "Cc1noc2ncn(CC(=O)NCc3ccc(Cl)cc3)c(=O)c12"
### Response 1

====

# experimental protocol: gradient 5% acetonitrile 3 min, to 50% in 2 min, to 85% in 15 min, held 3 min, 100 µL/min
# details: column: Zorbax Extend-C18 2.1 x 50 mm; eluents: water / acetonitrile, 0.1% formic acid
Answer each item with its documented RP-LC retention time.
Answers are plain numbers, in s.

Record excerpt, results attached:
> print(dat)
                                   compound           result.type  recorded.result
1  CN(Cc1ccccc1)C(=O)CC(=O)Nc1ccc2nc3n(c(=O)c2c1)CCCCC3  RP-LC retention time              702
2  Cc1cnc(C2CC2)n1CCNC(=O)C1CC(=O)N(C2CCCCC2)C1 (stereo not drawn)  RP-LC retention time              594
3  Cc1cc(=O)n(CC(=O)Nc2ccccc2Cl)c(N2CCCC2)n1  RP-LC retention time              661
4   CCOC(=O)CC(=O)CSc1ccc2nnc(-c3cccs3)n2n1  RP-LC retention time              671
5  Cc1cccc(N2CCN(C(=O)c3cn4cc(C)ccc4n3)CC2)c1  RP-LC retention time              702

Please look at the items below and tell me RP-LC retention time for each one, in order.
1. COc1ncc(C(=O)NCc2ccc(Cl)cc2)cn1
2. C=C(C)CN1CC[C@]23c4c5ccc(O)c4O[C@H]2c2[nH]c4ccccc4c2C[C@@]3(O)C1C5
3. COC(=O)c1ncn2c1C(=O)N(c1ccc(F)cc1)C(C)(C(=O)NCc1ccc(C)cc1)C2 (stereo not drawn)

### Response
751
703
732

====

# experimental protocol: gradient 5% acetonitrile 3 min, to 50% in 2 min, to 85% in 15 min, held 3 min, 100 µL/min
# details: column: Zorbax Extend-C18 2.1 x 50 mm; eluents: water / acetonitrile, 0.1% formic acid
Answer each item with its documented RP-LC retention time.
Could you write the number and then its unit?

Please look at the items below and tell me RP-LC retention time for each one, in order.
1. O=C(NC1CCCN(c2cc(-c3ccncc3)[nH]n2)C1)c1ccc2c(c1)OCO2 (stereo not given)
2. COc1ccccc1-c1nc(Cn2nnc(-c3nc(-c4ccccc4C)no3)c2C)c(C)o1
3. Cc1ccc(CNC(=O)N2CCC(N3CCN(Cc4ccccc4)C(=O)C3=O)CC2)cc1
4. CCOc1ccccc1NC(=O)Cn1nc2c(N3CCSCC3)nccn2c1=O
5. CC(C)n1cc(C2=CCN(S(=O)(=O)c3cccc(C#N)c3)CC2)c2cccnc21
6. COc1ccc(C(=O)Nc2nc(-c3ccc([N+](=O)[O-])cc3)cs2)cc1OC

### Response
1. 603 s
2. 1180 s
3. 768 s
4. 853 s
5. 995 s
6. 1010 s

Please look at the items below and tell me RP-LC retention time for each one, in order.
1. O=C(Cn1cnc(-c2cccs2)cc1=O)NCCn1nc(-c2cccs2)ccc1=O
2. O=C1NCCCCCN(C(=O)Nc2ccccc2F)[C@H]2CCCC[C@@H]12
3. O=C1CCCc2c1cc(C(=O)NCc1ccccn1)c(=O)n2-c1ccc(C(F)(F)F)cc1

### Response
1. 666 s
2. 815 s
3. 678 s

Please look at the items below and tell me RP-LC retention time for each one, in order.
1. CCc1noc(C)c1-c1[nH]c2ccccc2c1C(=O)C(=O)N(C)C
2. O=c1c(-c2ccccc2)c(N2CCN(c3ccccn3)CC2)c1=O
3. O=C(CN1C(=O)CCCc2cc(S(=O)(=O)N3CCCC3)ccc21)Nc1ccc(Cl)cc1F

### Response
1: 714 s; 2: 620 s; 3: 897 s

Please look at the items below and tell me RP-LC retention time for each one, in order.
1. COc1ccc(-c2cc(=O)n(CC(=O)Nc3nc4c(s3)CCCC4)cn2)cc1
2. COc1ccc(Cc2nn3c(CSc4ccccc4)nnc3s2)cc1
3. CC(=O)N1c2ccc(S(=O)(=O)N3CCCCC3)cc2CC1C(=O)NCCc1ccccc1 (stereo not given)

### Response
1: 762 s; 2: 937 s; 3: 868 s
